# Assay name: Pharmacokinetic study of CLDN18.2-linker conjugates (serum ELISA, NCA)
# Format: in vivo, BALB/c mice
# Condition notes: BALB/c mice, intravenous, about 1 mg/kg, serum, over 48 hours
Listing of recorded Cl by entry.
Only the number, expressed in L/h/kg, is required.

Query CLDN18.2-L011: Claudin 18.2 sdAb (SEQ ID NO. 1) conjugated with functional linker L011 (conjugate, functional linker L011 conjugated) VHH: EVQLVESGGGLVQPGGSLRLSCAASGSFFRIVAMGWYRQAPGSQRELVATITRGGSTYYADSVKGRFTISRDNAKNTLYLQMNSLRAEDTAVYYCNVRVEVPFMQPNDYWGQGTLVTVSS yields Cl of 0.057

Query CLDN18.2-L009: Claudin 18.2 sdAb (SEQ ID NO. 1) conjugated with functional linker L009 (conjugate, functional linker L009 conjugated) VHH: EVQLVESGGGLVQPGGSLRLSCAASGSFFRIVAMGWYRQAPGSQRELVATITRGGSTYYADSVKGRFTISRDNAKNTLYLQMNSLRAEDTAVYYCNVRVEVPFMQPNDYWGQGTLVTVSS yields Cl of 0.005

Query CLDN18.2-L003: Claudin 18.2 sdAb (SEQ ID NO. 1) conjugated with functional linker L003 (conjugate, functional linker L003 conjugated) VHH: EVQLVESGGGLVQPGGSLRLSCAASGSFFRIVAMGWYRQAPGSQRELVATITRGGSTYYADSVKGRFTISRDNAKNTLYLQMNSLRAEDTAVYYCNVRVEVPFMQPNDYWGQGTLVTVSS yields Cl of 1.81
